Assay text: physchem
Measurement parameters: deionized water, water, thermodynamic from solid, Water solubility, in water; room temperature, no time given
Counter-ions that a name gives are not always drawn.
Assay metric: solubility

QUERY: Note solubility for the molecule shown: CCc1c2c(nc3ccc(OC(=O)N4CCC(N5CCCCC5)CC4)cc13)-c1cc3c(c(=O)n1C2)COC(=O)[C@]3(O)CC [Form b, hydrochloride]
RESULT: ~10000 µg/mL

###

Assay text: physchem
Measurement parameters: pH 3.5, aqueous buffer, thermodynamic from solid, equilibrium solubility, pH value of about 3.5; room temperature
Structures can show the parent of a compound that is named as a salt.
Assay metric: solubility thermodynamic

QUERY: Give the measured solubility thermodynamic for CCc1c2c(nc3ccc(OC(=O)N4CCC(N5CCCCC5)CC4)cc13)-c1cc3c(c(=O)n1C2)COC(=O)[C@]3(O)CC [Form b, hydrochloride]
RESULT: < 20 mg/mL

###

Assay text: physchem
Measurement parameters: pH 1.2 buffer, pH 1.2, simulated gastric fluid, thermodynamic from solid, Irinotecan hydrocholoride concentration, b = pH 1.2 buffer; room temperature; 24 HOURS
Counter-ions that a name gives are not always drawn.
Assay metric: solubility thermodynamic at 24 h (µg/mL)
Response body: numeric value in µg/mL, unit text excluded.

QUERY: Provide measured solubility thermodynamic at 24 h value, entry: CCc1c2c(nc3ccc(OC(=O)N4CCC(N5CCCCC5)CC4)cc13)-c1cc3c(c(=O)n1C2)COC(=O)[C@]3(O)CC [Form b, hydrochloride]
RESULT: 260
